Test system: 966289-007-R4-J1-PDC complex spheroid viability;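 note: spheroids exposed to agents for one week before readout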
Experiment: Anticancer human tumor 966289-007-R4-J1-PDC patient-derived pancreatic adenocarcinoma cell line growth inhibition [RAS]; active = viability on the fitted dose curve at most 10% of control; inactive = the rest
Conditions: second compound 0.316 µM; first compound 0.003 µM
Give your call using only these classes: true for active, false for inactive

# example entries with known answers
CC1(C)CCC(Nc2ncc(C(F)(F)F)c(-c3c[nH]c4c(P(C)(C)=O)c(C#N)ccc34)n2)CN1 (centres undefined) + C#Cc1c(F)ccc2cc(O)cc(-c3ncc4c(N5CC6CCC(C5)N6)nc(OCC56CCCN5CC(F)C6)nc4c3F)c12    false
CCc1c2c(nc3ccc(O)cc13)-c1cc3c(c(=O)n1C2)COC(=O)[C@]3(O)CC + C=CC(=O)N1CCN(c2nc(OCC3CCCN3C)nc3c(F)c(-c4nc(N)cc(C)c4C(F)(F)F)c(Cl)cc23)C(C)C1    true
CC1(C)CCC(Nc2ncc(C(F)(F)F)c(-c3c[nH]c4c(P(C)(C)=O)c(C#N)ccc34)n2)CN1 (centres undefined) + C=CC(=O)N1CCN(c2nc(OCC3CCCN3C)nc3c(F)c(-c4nc(N)cc(C)c4C(F)(F)F)c(Cl)cc23)C(C)C1    false

Next up:
Prompt: Any idea what this test logged for CCc1c2c(nc3ccc(O)cc13)-c1cc3c(c(=O)n1C2)COC(=O)[C@]3(O)CC + C#Cc1c(F)ccc2cc(O)cc(-c3ncc4c(N5CC6CCC(C5)N6)nc(OCC56CCCN5CC(F)C6)nc4c3F)c12 ?
Response: true
